# system: Neurotensin receptor type 1 (Homo sapiens)
# protocol.text: NTR1 agonists, beta-arrestin recruitment, SAR follow-up, orthogonal assay for NTR1 agonist project, cell-based, luminescence, CHO-K1 NTSR1 PathHunter (AID 602427);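 further: agonist potency for NTR1 activation where higher luminescence means more arrestin recruitment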
The source made the active and inactive calls.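 How the source made its calls: active means EC50 at or below 20 micromolar; inactive means the rest.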
This listing pairs compounds with measured EC50.

Below, 4 compounds whose answers are already recorded.
Q. For the compound COc1cccc(OC)c1-c1nc(C(=O)N[C@@H](CC(C)C)C(=O)O)cn1-c1cccc2ccccc12 , give its measured EC50 value.
A. 6.08 µM

Q. For the compound COc1cc2nc(-c3ccccc3)nc(N3CCN(c4ccccc4OC)CC3)c2cc1OC , give its measured EC50 value.
A. > 33 µM (inactive)

Q. For the compound O=C(O)c1nc(-c2ccnc3ccccc23)c(-c2ccccc2)s1 , give its measured EC50 value.
A. > 33 µM (inactive)

Q. For the compound COc1cccc(OC)c1-c1nc(C(=O)N[C@@H](CC(C)C)C(=O)O)cn1-c1ccnc2ccccc12 , give its measured EC50 value.
A. 18.2 µM

--- query ---
Q. For the compound COc1ccc(Cn2cc(C(=O)c3ccc(OC)cc3)c(=O)c3ccccc32)cc1 , give its measured EC50 value.
A. > 33 µM (inactive)
